B1: ANKRD40 (parent)
chain: YQELLRVCCCELGVNPDQVEKIRK

variants of: B1; assay: protein stability index of a GFP-peptide fusion (GPS, HEK-293T) (PSI 1-6); higher = more stable; settings: c terminus: a fixed tail appended;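 note: lentivirally expressed fusions sorted by FACS into six bins by GFP to DsRed ratio, PSI derived from sequencing read proportions per bin multiplied by bin number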
The label depends only on protein stability index: Yes if it is at least 2, No if it is smaller.

[[record]]
chain_sequence = "YQELLRVCCCEWGVNPDQVEKIRK [L12W]"
label_class = "No"

[[record]]
chain_sequence = "YQELLRVCCCELFVNPDQVEKIRK [G13F]"
label_class = "No"

[[record]]
chain_sequence = "YMELLRVCCCELGVNPDQVEKIRK [Q2M]"
label_class = "No"

[[record]]
chain_sequence = "YQELLRVCCCELGVNPDQSEKIRK [V19S]"
label_class = "No"

[[record]]
chain_sequence = "YQELLRVCCCELGVNPDQVEKLRK [I22L]"
label_class = "No"

[[record]]
chain_sequence = "YQELLRVCCCELGVNPDQVEKIRL [K24L]"
label_class = "Yes"

[[record]]
chain_sequence = "YQELLRVCCCELGVNPDQVEKIPK [R23P]"
label_class = "No"

[[record]]
chain_sequence = "YQEALRVCCCELGVNPDQVEKIRK [L4A]"
label_class = "Yes"

[[record]]
chain_sequence = "YQELLRVCCCELGVYPDQVEKIRK [N15Y]"
label_class = "No"

[[record]]
chain_sequence = "YQELLRACCCELGVNPDQVEKIRK [V7A]"
label_class = "Yes"

[[record]]
chain_sequence = "YQELLRVCCCELGVNPDQVQKIRK [E20Q]"
label_class = "No"

[[record]]
chain_sequence = "YQELLRVCACELGVNPDQVEKIRK [C9A]"
label_class = "Yes"

[[record]]
chain_sequence = "YQELLRVCCCELGVNPLQVEKIRK [D17L]"
label_class = "No"

[[record]]
chain_sequence = "YQELLRVCCCELGVNPDQVEKIRV [K24V]"
label_class = "No"

[[record]]
chain_sequence = "YQELLRECCCELGVNPDQVEKIRK [V7E]"
label_class = "Yes"

[[record]]
chain_sequence = "YAELLRVCCCELGVNPDQVEKIRK [Q2A]"
label_class = "No"

[[record]]
chain_sequence = "YQELLRVCCCELGVNPDSVEKIRK [Q18S]"
label_class = "Yes"

[[record]]
chain_sequence = "YQELLRVCCCELGVNPDQVEKQRK [I22Q]"
label_class = "Yes"

[[record]]
chain_sequence = "YQELLRVCCCEKGVNPDQVEKIRK [L12K]"
label_class = "Yes"

[[record]]
chain_sequence = "YQELLRVCCCELEVNPDQVEKIRK [G13E]"
label_class = "Yes"

[[record]]
chain_sequence = "YQELLRVCCCELGVNPDQVEYIRK [K21Y]"
label_class = "Yes"

[[record]]
chain_sequence = "YQELLRVCCCELCVNPDQVEKIRK [G13C]"
label_class = "No"

[[record]]
chain_sequence = "YQEILRVCCCELGVNPDQVEKIRK [L4I]"
label_class = "Yes"

[[record]]
chain_sequence = "YQELLRVCCCPLGVNPDQVEKIRK [E11P]"
label_class = "No"

[[record]]
chain_sequence = "YQELLRVCCCCLGVNPDQVEKIRK [E11C]"
label_class = "Yes"

[[record]]
chain_sequence = "YQELLRVCCCELGVNPDQEEKIRK [V19E]"
label_class = "Yes"

[[record]]
chain_sequence = "PQELLRVCCCELGVNPDQVEKIRK [Y1P]"
label_class = "No"

[[record]]
chain_sequence = "YQELLRVCCCELGVNHDQVEKIRK [P16H]"
label_class = "No"

[[record]]
chain_sequence = "YQELLRVCCCELGVNPDQVEKIVK [R23V]"
label_class = "Yes"

[[record]]
chain_sequence = "YQELLRVCCCELGFNPDQVEKIRK [V14F]"
label_class = "Yes"

[[record]]
chain_sequence = "YQELLRVCCCELGVNPDQVLKIRK [E20L]"
label_class = "Yes"

[[record]]
chain_sequence = "YKELLRVCCCELGVNPDQVEKIRK [Q2K]"
label_class = "Yes"

[[record]]
chain_sequence = "YQELLRVCCCELGVNKDQVEKIRK [P16K]"
label_class = "Yes"

[[record]]
chain_sequence = "YQELLRVCCIELGVNPDQVEKIRK [C10I]"
label_class = "No"

[[record]]
chain_sequence = "YQELLRVCCCELGVNPDQDEKIRK [V19D]"
label_class = "No"

[[record]]
chain_sequence = "YQELLRVCCCELGVNQDQVEKIRK [P16Q]"
label_class = "Yes"

[[record]]
chain_sequence = "YQELLFVCCCELGVNPDQVEKIRK [R6F]"
label_class = "No"

[[record]]
chain_sequence = "YQELLRVCCCELGVNPDQVEIIRK [K21I]"
label_class = "No"

[[record]]
chain_sequence = "YQELLRVCCGELGVNPDQVEKIRK [C10G]"
label_class = "Yes"

[[record]]
chain_sequence = "YDELLRVCCCELGVNPDQVEKIRK [Q2D]"
label_class = "Yes"

[[record]]
chain_sequence = "YQERLRVCCCELGVNPDQVEKIRK [L4R]"
label_class = "No"

